measuredOn: T1, human C1s (human, UniProt P09871 16-688)
T1 construct: also called hC1s; serum-derived human C1s (CompTech)
T1 sequence: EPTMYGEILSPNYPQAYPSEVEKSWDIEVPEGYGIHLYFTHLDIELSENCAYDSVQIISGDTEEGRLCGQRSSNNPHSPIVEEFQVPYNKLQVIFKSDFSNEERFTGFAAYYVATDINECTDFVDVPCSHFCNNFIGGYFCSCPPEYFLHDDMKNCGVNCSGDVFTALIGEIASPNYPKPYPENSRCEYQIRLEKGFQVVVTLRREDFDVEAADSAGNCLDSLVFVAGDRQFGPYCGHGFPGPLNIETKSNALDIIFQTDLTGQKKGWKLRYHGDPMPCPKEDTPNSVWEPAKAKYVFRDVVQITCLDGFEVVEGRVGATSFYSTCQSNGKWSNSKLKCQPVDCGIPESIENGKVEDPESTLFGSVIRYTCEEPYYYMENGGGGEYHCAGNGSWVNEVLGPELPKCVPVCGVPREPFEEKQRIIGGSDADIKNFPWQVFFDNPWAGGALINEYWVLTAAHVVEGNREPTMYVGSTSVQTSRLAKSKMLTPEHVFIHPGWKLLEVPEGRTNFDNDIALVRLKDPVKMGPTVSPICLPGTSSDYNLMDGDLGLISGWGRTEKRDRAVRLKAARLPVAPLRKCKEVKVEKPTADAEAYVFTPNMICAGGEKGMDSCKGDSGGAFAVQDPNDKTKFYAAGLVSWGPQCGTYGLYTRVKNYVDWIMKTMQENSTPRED
assayMethodText: SPR, Ab captured; pH 5.8, 1.2 mM Ca
experimentalEndpoint: koff
Record the result as number plus unit.

Consider the binder shown here: C1_IPN92H0026-SG4GK/IPN93L0024-SK1 (antibody, human IgG4 S228P, kappa, name in Kabat numbering, V domains shown, also called IPN92H0026/IPN93L0024) VH: EVMLVESGGGLVKPGGSLRLSCAASGFTFSNYAMSWVRQAPGKGLEWVATISSGGSHTYYLDSVKHRFTISRDNSKDTLYLQMNSLRAEDTALYYCARLFTGYAMDYWGQGTLVTVSS VL: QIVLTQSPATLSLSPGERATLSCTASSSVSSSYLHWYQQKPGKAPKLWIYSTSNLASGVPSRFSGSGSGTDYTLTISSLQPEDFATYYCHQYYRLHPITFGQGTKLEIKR What is its recorded koff?
0.00143 s⁻¹
